# MEASURED_TARGET: human 5-HT3A receptors (Homo sapiens)
# Construct: expressed in transfected cells; host or cells: Xenopus laevis oocytes (cRNA from pGEMHE)
# METHOD_NOTES: Two-electrode voltage clamp of 5-HT-induced currents in Xenopus oocytes, incl. co-application
# Assay type: cell-based
ASSAY_READOUT: pIC50
Friendly reminder that pIC50 comes from taking -log10 of the concentration in mol/L.

Example cases with answers are listed next.
{"COMPOUND": "C=C(C)[C@@H]1[C@H]2OC(=O)[C@@H]1[C@]1(O)C[C@H]3O[C@]34C(=O)O[C@H]2[C@]14C [PXN, picrotoxinin]", "pIC50": 4.97}
{"COMPOUND": "CC(C)(O)[C@@H]1[C@H]2OC(=O)[C@@H]1[C@]1(O)C[C@H]3O[C@]34C(=O)O[C@H]2[C@]14C [PTN, picrotin]", "pIC50": 3.33}

Record request: pIC50 value, item CC(C)(C)[C@]1(O)CC2OC(=O)CC23C(=O)OC2OC(=O)[C@H](O)C231 (stereo partly drawn) [BB, bilobalide]
3.33

---

# MEASURED_TARGET: human 5-HT3AB receptors (Homo sapiens, UniProt O95264+P46098)
# Construct: expressed in transfected cells; host or cells: Xenopus laevis oocytes (cRNA from pGEMHE)
# Sequence (P46098 24-478): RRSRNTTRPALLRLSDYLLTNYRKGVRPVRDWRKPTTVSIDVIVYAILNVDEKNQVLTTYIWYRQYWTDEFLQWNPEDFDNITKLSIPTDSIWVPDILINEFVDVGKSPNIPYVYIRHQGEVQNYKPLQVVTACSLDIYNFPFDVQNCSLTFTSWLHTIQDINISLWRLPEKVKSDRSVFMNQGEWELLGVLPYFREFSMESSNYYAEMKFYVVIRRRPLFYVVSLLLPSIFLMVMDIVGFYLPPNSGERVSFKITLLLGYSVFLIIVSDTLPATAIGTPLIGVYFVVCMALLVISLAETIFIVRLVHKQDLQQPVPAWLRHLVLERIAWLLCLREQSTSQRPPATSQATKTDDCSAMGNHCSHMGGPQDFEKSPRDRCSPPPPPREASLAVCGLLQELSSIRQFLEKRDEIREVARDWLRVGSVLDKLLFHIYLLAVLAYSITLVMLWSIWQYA
# Sequence (O95264 22-441): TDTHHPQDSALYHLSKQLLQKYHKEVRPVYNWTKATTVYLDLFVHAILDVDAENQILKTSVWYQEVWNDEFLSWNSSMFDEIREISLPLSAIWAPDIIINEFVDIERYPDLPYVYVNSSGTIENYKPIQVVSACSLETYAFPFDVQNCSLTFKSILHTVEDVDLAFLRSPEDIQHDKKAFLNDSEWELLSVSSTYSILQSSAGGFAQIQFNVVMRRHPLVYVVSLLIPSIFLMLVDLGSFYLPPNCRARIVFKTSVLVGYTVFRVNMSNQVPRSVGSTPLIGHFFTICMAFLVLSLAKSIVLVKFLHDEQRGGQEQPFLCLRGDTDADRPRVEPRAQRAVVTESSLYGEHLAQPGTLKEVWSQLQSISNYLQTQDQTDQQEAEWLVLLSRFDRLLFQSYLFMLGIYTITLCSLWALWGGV
# METHOD_NOTES: Two-electrode voltage clamp of 5-HT-induced currents in Xenopus oocytes
# Type: cell-based
# DETAILS: inhibition of 5-HT EC50 response (28 μM 5-HT), oocytes; read-out: IC50
# Experimental: Stage V and VI oocytes were injected with 50 nl of ∼300 ng μl^−1 cRNA, and currents were recorded 1–4 days post-injection. A ratio of 1:3 (A:B) was used for the expression of heteromeric 5-HT3 receptors. Xenopus laevis oocyte positive females were purchased from NASCO (Fort Atkinson, Wisconsin, USA) and maintained according to standard methods. Currents were filtered at a frequency of 1 kHz. […]
ASSAY_READOUT: IC50

Dear colleague, I am looking for the recorded IC50 of the following molecule: C[C@@H]1C(=O)O[C@H]2C[C@@]34[C@H]5C[C@@H](C(C)(C)C)[C@]36[C@@H](OC(=O)[C@@H]6O)O[C@@]4(C(=O)O5)[C@]21O [GA, ginkgolide A]
> 1 mM

---

# MEASURED_TARGET: human 5-HT3AB receptors (Homo sapiens, UniProt O95264+P46098)
# Construct: expressed in transfected cells; host or cells: Xenopus laevis oocytes (cRNA from pGEMHE)
# METHOD_NOTES: Two-electrode voltage clamp of 5-HT-induced currents in Xenopus oocytes
# Type: cell-based
# DETAILS: pIC50, inhibition of 5-HT EC50 response (28 μM 5-HT), oocytes
# Method: Stage V and VI oocytes were injected with 50 nl of ∼300 ng μl^−1 cRNA, and currents were recorded 1–4 days post-injection. A ratio of 1:3 (A:B) was used for the expression of heteromeric 5-HT3 receptors. Xenopus laevis oocyte positive females were purchased from NASCO (Fort Atkinson, Wisconsin, USA) and maintained according to standard methods. Currents were filtered at a frequency of 1 kHz. […]
ASSAY_READOUT: pIC50
Lab note — pIC50 values are minus log10 of concentrations in M.

Check out these entries, answers already filled in.
{"COMPOUND": "CC(C)(C)[C@]1(O)CC2OC(=O)CC23C(=O)OC2OC(=O)[C@H](O)C231 (stereo partly drawn) [BB, bilobalide]", "ASSAY_READOUT": "pIC50", "RECORDED_NUMBER": 2.50}
{"COMPOUND": "CC(C)(O)[C@@H]1[C@H]2OC(=O)[C@@H]1[C@]1(O)C[C@H]3O[C@]34C(=O)O[C@H]2[C@]14C", "ASSAY_READOUT": "pIC50", "RECORDED_NUMBER": 2.53}

For the record C=C(C)[C@@H]1[C@H]2OC(=O)[C@@H]1[C@]1(O)C[C@H]3O[C@]34C(=O)O[C@H]2[C@]14C , what value of pIC50 is listed for human 5-HT3AB receptors (Homo sapiens, UniProt O95264+P46098)?
4.20
